Experiment: S. cerevisiae RM11-1a growth modifiers, primary screen, strain RM11-1a, OD600, basal, 24 h (AID 1177);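 note: cultures grown under basal conditions with no added stressor; test concentration not given here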
Conditions: OD600, 24 h, higher = more signal, called active from +8 up or from −8 down
Label class 1 when z-score >= 0.07; otherwise class 0.

| compound | label |
| --- | --- |
| CCOC(=O)C[C@H]1[C@H](OC(=O)c2cc3ccccc3oc2=O)[C@@H](NC(=O)C2CCCCC2)c2cc(OCCCO)ccc2N1C(=O)c1ccc2ccccc2n1 | class 1 |
| CCCNC(=O)[C@@]1(Sc2ccc(C)cc2)CC(=O)N(Cc2ccccc2Cl)[C@@H]1c1ccc(CO)cc1 | class 0 |
| C=C(CCCC)C(=O)CC[C@@H](OC(=O)c1cccnc1)c1cccc(OCCO)c1 | class 1 |
| CCCNC(=O)[C@@H]1c2ccccc2C(=O)N(C2CCCCC2)[C@H]1c1ccc(CO)cc1 | class 1 |
| CO[C@H]1O[C@H](CO)[C@@H](OC(=O)Nc2ccc3c(c2)OCO3)[C@H](OC(=O)Nc2ccccc2)[C@@H]1OC(=O)Nc1ccccc1 | class 1 |
| C[C@]1(C(=O)NCc2ccccc2)c2ccccc2C(=O)N(Cc2cc(C(F)(F)F)cc(C(F)(F)F)c2)[C@H]1c1ccc(CO)cc1 | class 0 |
| CO[C@H]1COC(=O)[C@@H](Cc2ccccc2)NC(=O)[C@@H](C)COC(=O)CC=C[C@@H]1C | class 0 |
| COCC(=C=CC[C@H](O)c1ccc(OCCO)cc1)C[C@H](O)c1ccccn1 | class 1 |
| C=C(CCCC)/C(=C/C[C@@H](OC(=O)c1ccncc1)c1cccc(OCCO)c1)c1cc(C(=O)OC)ccc1OC | class 1 |
| COc1ccc([Si](C)(C)[C@@H]2[C@@H](CCO)O[C@]3(C(=O)N(Cc4ccccc4)c4ccccc43)[C@H]2C)cc1 | class 1 |
| CO[C@H]1O[C@H](CO)[C@@H](OC(=O)Nc2ccccc2)[C@H](OC(=O)Nc2ccc3c(c2)OCO3)[C@@H]1OC(=O)Nc1ccc2c(c1)OCO2 | class 1 |
| CCCCCCc1nc(C2CC2)c(C)c2c1[Si](C(C)C)(C(C)C)OC2 | class 0 |
| COCCOC(=O)N1C(=O)[C@@]2(c3ccccc31)[C@H](C(=O)N1CCc3cc(OC)c(OC)cc3C1)[C@H]1C(=O)O[C@H](c3ccccc3)[C@H](c3ccccc3)N1[C@@H]2c1ccccc1OCCO | class 0 |
| Cc1ccccc1C(O)C1C=CC2C(=O)N(c3ccccc3)C(=O)C2N1Nc1ccc(C#N)cc1 (stereo not given) | class 1 |
| CO[C@H]1COC(=O)[C@H](C)COC(=O)[C@H](Cc2ccccc2)NC(=O)CC=C[C@H]1C | class 0 |

###

# key: entry, value: z-score
Target: Luciferin 4-monooxygenase (Photinus pyralis)
Assay: firefly luciferase enzyme inhibitors, primary screen, biochemical, luminescence, purified enzyme, 2006 set (AID 1141);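 note: cell-free assay with purified firefly luciferase at 100 ng per well in PBS; test concentration not given here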
Conditions: SteadyGlo luminescence, 30 min, higher = more signal, called active from +8 up or from −8 down
measured.property: z-score

| compound | observed |
| --- | --- |
| CC(C)N1CC=CC23O[C@@H]4/C=C\CCCOC(=O)C4[C@H]2C(=O)N(CCO)[C@@H]3C1=O (some centres undefined) | -1.68 |
| O=C(O)[C@@H]1Cc2c([nH]c3ccccc23)[C@@H](c2ccccc2)N1 | -0.0866 |
| CCC1=C2CN(Cc3ccccc3Br)[C@@H]([C@@H](O)Cc3ccccc3)C2C=CCC1 (some centres undefined) | -0.852 |
| COc1ccc([Si](C)(C)[C@@H]2[C@@H](CC(=O)N(CCO)Cc3ccccc3)O[C@]3(C(=O)N(Cc4cccc(N5CCC5=O)c4)c4ccccc43)[C@H]2C)cc1 | 0.352 |

###

Molecular target: Torsin-1A-interacting protein 1 (Homo sapiens)
Experiment: LAP1 binders from COS7 cell lysate, primary screen, small-molecule microarray, 635/667 nm fluorescence (AID 1116)
Details: COS7-hLAP1 lysate binding, 635 nm fluorescence, higher = more signal

| compound | measured.on | composite z-score |
| --- | --- | --- |
| COc1cccc([C@@H]2[C@@H](C)CC[C@H]3C(=O)N(C)[C@@H](C(C)C)C(=O)N23)c1 | Torsin-1A-interacting protein 1 (Homo sapiens) | 1.11 |
| COC(=O)c1c(CC[C@@H](CO)NC(=O)N[C@H](Cn2cc(-c3cncn3C)nn2)C(C)C)oc(C(C)=O)c1C(=O)OC | Torsin-1A-interacting protein 1 (Homo sapiens) | 0.542 |
| CO[C@@H]1COC(=O)CC=C[C@H](C)COC(=O)[C@H](Cc2ccccc2)NC(=O)CC=C[C@H]1C | Torsin-1A-interacting protein 1 (Homo sapiens) | -0.0955 |
| C/C(=N\O)C(=O)NCCCCCNC(=O)OCc1ccccc1 | Torsin-1A-interacting protein 1 (Homo sapiens) | 0.371 |
| CC(C)[C@H]1NC(=O)[C@@]23C(=O)N[C@@H](Cc4ccccc4)C2[C@H](C)[C@@]2(C)O[C@H]2C3/C=C/C/C=C\CNC(=O)[C@H](C)NC1=O (some centres not stated) | Torsin-1A-interacting protein 1 (Homo sapiens) | -0.198 |
| COCCOC(=O)N1C(=O)[C@@]2(c3cc(C#CCNC(N)=O)ccc31)[C@H](C(=O)N1CCCCCCC1)[C@H]1C(=O)O[C@H](c3ccccc3)[C@H](c3ccccc3)N1[C@@H]2c1ccccc1OCCO | Torsin-1A-interacting protein 1 (Homo sapiens) | 0.845 |
| C=C(CCCC)/C(=C/C[C@@H](OC(=O)c1ccncc1)c1ccc(CO)o1)c1cnc2ccccc2c1 | Torsin-1A-interacting protein 1 (Homo sapiens) | 2.1 |

###

Experiment: CREB reporter modulators without forskolin, primary screen, cell-based, PC12, CRE-LacZ reporter, unstimulated (AID 1145)
Details: no forskolin, luminescence, 4.5 h, higher = more signal, called active from +8 up or from −8 down
measured.property: z-score

| molecule | observed |
| --- | --- |
| CC(c1ccccc1)C(O)C1C=CC2C(=O)N(C)C(=O)C2N1N(c1ccccc1)c1ccccc1 (centres undefined) | 0.443 |
| CC(=O)NCCCC[C@@H]1NC(=O)[C@@H]2C[C@H](C(=O)NCCCCCNC(=O)CS)[C@H](c3ccc(O)cc3)N2C1=O | -0.134 |
| CO[C@@H]1COC(=O)CC=C[C@H](C)COC(=O)[C@H](Cc2ccccc2)NC(=O)CC=C[C@H]1C | -0.202 |
| C[C@H]1C2[C@H](Cc3ccccc3)NC(=O)[C@]23C(=O)N[C@H](Cc2ccccc2)C(=O)N[C@@H](Cc2ccccc2)C(=O)NC/C=C\C/C=C/C3[C@@H]2O[C@]12C (some centres undefined) | 0.311 |
| COc1ccc(-c2ccccc2[C@@H]2N[C@H](C(=O)O)CC[C@H]2C)cc1 | 1.01 |
| C=CCc1cccc([C@H]2N[C@H](C(=O)O)CC[C@@H]2C)c1 | 1.46 |
| COC(=O)C[C@H]1O[C@]2(C(=O)N(C)c3ccccc32)[C@@H](C)[C@@H]1[Si](C)(C)c1ccc(OC)cc1 | 2.23 |
| C=CCC(OC(C)=O)[C@@H]1[C@@H](N(Cc2ccc(-c3cccc(C(F)(F)F)c3)o2)C(=O)Cc2ccc(F)cc2)c2cc(OCCCO)ccc2N1C(=O)c1ccc(-c2ccccc2)cc1 (some centres undefined) | 0.6 |
| CCN1C(C)=C(C(=O)OC)[C@@H](c2ccccc2)N2C(=O)[C@](O)(C(=O)OC)[C@@H](c3ccccc3)C(C(C)=O)=C12 | 0.106 |
| CO[C@H]1COC(=O)CC=C[C@@H](C)COC(=O)[C@@H](C)NC(=O)CC=C[C@@H]1C | 0.608 |
| O=C(NCC(O)CO)[C@]1(Cc2ccccc2)N=C(c2ccc(OCCCO)cc2)O[C@@H]1c1ccccc1 (some centres undefined) | 0.171 |
| CCOC(=O)C[C@H]1[C@H](OC(=O)c2cc3ccccc3oc2=O)[C@@H](NC(=O)C2CCCCC2)c2cc(OCCCO)ccc2N1C(=O)c1ccc2ccccc2n1 | 6.62 |
| O=C1O[C@@H](c2ccccc2)[C@@H](c2ccccc2)N2[C@@H](c3ccc(OCCO)cc3)[C@]3(C(=O)Nc4ccc(C#CCCO)cc43)[C@@H](C(=O)N3CCN(c4ncccn4)CC3)[C@H]12 | 0.478 |
| CCOC(=O)C[C@H]1[C@H](OC(=O)c2ccccc2-c2ccccc2)[C@@H](NC(=O)C2CCCCC2)c2cc(OCCCO)ccc2N1C(=O)c1ccccc1 | 10.2 |

###

Tested on: Neuregulin-1 EGF-like domain
Experiment: binders of neuregulin-1 EGF-like domain, primary screen, biochemical, small-molecule microarray, 635 nm fluorescence (AID 1081);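 note: binding of the protein to compounds printed on small-molecule microarray slides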
Details: small-molecule microarray binding, higher = more signal
Binary classification by composite z-score, with 0.5 as an inclusive lower bound for fulfilled; all other cases are not fulfilled.

| compound | label |
| --- | --- |
| COc1ccc([C@H]2C[C@H]3C(Br)=C[C@]2(OC)C(=O)[C@]32CO2)cc1 | not fulfilled |
| COc1cc(CO)cc(I)c1O[C@H]1C=C(C(=O)NCCO)C[C@@H](N(CC2CCCCC2)C(=O)c2cc3ccccc3oc2=O)[C@@H]1O | not fulfilled |
| COC(=O)c1c(CC[C@@H](CO)NC(=O)N[C@H](Cn2cc(-c3cncn3C)nn2)C(C)C)oc(C(C)=O)c1C(=O)OC | fulfilled |
| CC[C@H]1C2=C3C(CC[C@H]4C(OC)OC[C@](C)([C@@H]34)N(C(=O)OC(C)(C)C)C2)C(CO)C1CO (some centres not stated) | fulfilled |
| COc1ccc([Si](C)(C)[C@H]2[C@H](CCO)O[C@@]3(C(=O)N(Cc4ccc(N5CCCCC5=O)cc4)c4ccccc43)[C@@H]2C)cc1 | fulfilled |
| Cc1ccc(S[C@]2(C(=O)NCCN3CCOCC3)CC(=O)N(C3Cc4ccccc4C3)[C@@H]2c2ccc(CO)cc2I)cc1 | fulfilled |
| C=C(/C(=C/C[C@@H](OC(=O)c1ccncc1)c1ccc(CO)o1)c1cnc2ccccc2c1)C(C)C | fulfilled |
